// provenance: patent US4294958A

Each entry below carries its reported HC50.
test: haemolytic activity (hemoglobin, determined spectrophotometrically); type: cell-based; settings: in vitro haemolysis; 50% of hemoglobin, λ = 550 nm; read-out: EH50 (the source's name)
Number only, in µg/mL; omit the unit.

Check out these entries, answers already filled in.
COC(=O)[C@H]1[C@@H]2C[C@@H](O[C@@H]3O[C@H](C)[C@@H](O)[C@H]([N+](C)(C)C)[C@@H]3O)/C=C/C=C/C=C/C=C/C=C/C=C/C=C/[C@H](C)[C@@H](O)[C@@H](C)[C@H](C)OC(=O)C[C@H](O)C[C@H](O)CC[C@@H](O)[C@H](O)C[C@H](O)C[C@](O)(C[C@@H]1O)O2 [DMS-Amphotericin B]; 5
COc1cc2c(c3oc(-c4ccccc4)cc(=O)c13)C=CC(C)(C)O2 [Candidin, candidin]; 20

Please examine the following record next.
Exercise: Given the entry C[C@@H]1[C@H](O)[C@@H](C)/C=C/C=C/C=C/C=C/C=C/C=C/C=C/[C@H](O[C@@H]2O[C@H](C)[C@@H](O)[C@H](N)[C@@H]2O)C[C@@H]2O[C@](O)(C[C@@H](O)C[C@@H](O)[C@H](O)CC[C@@H](O)C[C@@H](O)CC(=O)O[C@H]1C)C[C@H](O)[C@H]2C(=O)O [Amphotericin B, amphotericin B] , report its measured HC50.
Key: 5
